Where these numbers come from: patent US4182896A

# System: SPF male rats, OFA strain
# procedure.text: Anti-inflammatory activity: paw swelling after subcutaneous plantar injection of carraghenine, oral administration
# Format: in vivo
# setup.conditions: Rattus norvegicus, po, 32 mg/kg oral, carraghenine, read-out: percentage reduction in the inflammation
Hi there, I'd appreciate the recorded inhibition in vivo at 32 mg/kg for every entry that follows.
# unit: % | format: bare number

Prompt line: Quick check: inhibition in vivo at 32 mg/kg of CC1Cc2ccc(CC(=O)O)cc2C1 (stereo not drawn) [Example 12, [2-Methyl-indanyl-(5)]-acetic acid] ?
Response line: 23

Prompt line: What value of measured inhibition in vivo at 32 mg/kg is listed for CC1Cc2ccc(C(C)C(=O)O)cc2C1 (stereo not drawn) [Example 15] ?
Response line: 20

Prompt line: Can you share its inhibition in vivo at 32 mg/kg? I mean this compound: CC(C(=O)O)c1ccc2c(c1)CC(C)(C)C2 (stereo not drawn) [Example 16]
Response line: 20

Prompt line: Using the record for CCC1Cc2ccc(C(C)C(=O)O)cc2C1 (stereo not drawn) [Example 18] , report its inhibition in vivo at 32 mg/kg.
Response line: 54

Prompt line: Reported inhibition in vivo at 32 mg/kg, compound CC1(C)Cc2ccc(CC(=O)OCCN3CCOCC3)cc2C1 [Example 23] : ____
Response line: 9

Prompt line: Consider the compound shown here: CC(C)C1Cc2ccc(CC(=O)OCCN3CCOCC3)cc2C1 (stereo not drawn) [Example 8] What is its recorded inhibition in vivo at 32 mg/kg?
Response line: 17

----------
# Tested on: SPF male rats, OFA strain
# procedure.text: Anti-inflammatory activity: paw swelling after subcutaneous plantar injection of carraghenine, oral administration
# Type: in vivo
# setup.conditions: Rattus norvegicus, po, 32 mg/kg oral, carraghenine, read-out: percentage reduction in the inflammation
# Method: Anti-inflammatory activity The products to be tested are administered orally to batches of 12 SPF male rats, OFA strain, weighing 120-130 g, 2 hours and 30 minutes (1/2 dose each time) before the subcutaneous plantar injection of 0.05 ml of a 1% strength solution of carraghenine. The volume of the back paw which received the phlogogenic agent is measured at regular intervals. The 50% effective dose is calculated at the moment of greatest swelling of the controls. […]
Assign class by inhibition in vivo at 32 mg/kg: not lower than 20% means Satisfied; lower than 20% means Not satisfied.

Prompt line: Could you please find out whether CC1Cc2ccc(CC(=O)OCCN3CCOCC3)cc2C1 (centres unmarked) has inhibition in vivo at 32 mg/kg that meets 20% or exceeds it?
Response line: Not satisfied

Prompt line: inhibition in vivo at 32 mg/kg >= 20% for CC1(C)Cc2ccc(CC(=O)O)cc2C1 [Example 13, [2,2-Dimethyl-indanyl-(5)]-acetic acid] ?
Response line: Satisfied

Prompt line: Quick check, inhibition in vivo at 32 mg/kg >= 20%? O=C(O)Cc1ccc2c(c1)CC(C1CCCCC1)C2 (centres unmarked) [Example 11, [2-Cyclohexyl-indanyl-(5)]-acetic acid]
Response line: Not satisfied

Prompt line: Please check the record CC(C(=O)OCCN1CCOCC1)c1ccc2c(c1)CC(C)(C)C2 (centres unmarked) and state if its inhibition in vivo at 32 mg/kg is at or above 20%.
Response line: Satisfied

Prompt line: Please check the record CC(C)C1Cc2ccc(CC(=O)O)cc2C1 (centres unmarked) [Example 4, [2-Isopropyl-indanyl-(5)]-acetic acid] and state if its inhibition in vivo at 32 mg/kg is at or above 20%.
Response line: Not satisfied
